These entries and their values trace back to paper PMC4956467.

# target-desc: A3Fc-CD2 D313A (human, UniProt Q9HC16 197-221+Q8IUX4:220-373, D313A;internal_change)
# test: BLI
recorded-endpoint: pKd
Scale note: pKd = -log10(concentration in M).

Q. Can you look up the measured pKd of TCCCTCAGACCCTTTTAGTCAGTGTGGAAAATCTCTAGCAGT (ssDNA) [42-mer ssDNA, viral U5 end of 3'-LTR] for me?
A. 3.66
